Test system: SK-MEL-5 melanoma
Assay details: NCI-60 one-dose screen, 48 h (100 = growth as untreated, 0 = no growth, -100 = all killed)
Condition summary: 10 µM unless noted
About 83,000 compounds went through this panel and 20% of them were active in at least one assay; those are over-represented in the sample as a whole.
Parameter measured: growth (%)
Numbers only, in %.

>>> experimental_result("C/C(=C(/c1ccc(O)cc1)c1ccc(OCCN2CCCC2)cc1)c1ccccc1")
-65.8
>>> experimental_result("COc1ccc2nc(NC(=O)c3cccnc3Nc3cc(OC)c(OC)c(OC)c3)sc2c1")
15.5
>>> experimental_result("CC(=O)C1=C(O)C=C2Oc3c(C(=O)/C=C/c4ccccc4)c(O)c(C)c(O)c3[C@]2(C)C1=O")
10.1
>>> experimental_result("NC(CC(=O)O)C(=O)OCc1ccccc1 (configuration not stated)")
97.8
>>> experimental_result("CCN(CC)CC(O)c1cc(-c2ccc(Cl)cc2)nc2c(C)c(Cl)ccc12 (configuration not stated)")
-96.6

Give me growth for each of these compounds, listed below.
1. COCCOC(=O)C1=C(C)NC(=S)NC1c1ccc2c(c1)OCO2 (configuration not stated)
2. CCN(CC)CCCC(C)N/C(=C1\C(=O)NC(=O)\C1=C(/NC(C)CCCN(CC)CC)c1cccc(OC)c1)c1cccc(OC)c1 (configuration not stated)

1: 97.6; 2: -91

Give me growth for each of these compounds, listed below.
1. CC(=O)C1=C(O)C=C2Oc3c(C(=O)/C=C/c4cc(C(F)(F)F)cc(C(F)(F)F)c4)c(O)c(C)c(O)c3[C@]2(C)C1=O
2. CC(C)[C@H]1COC(=O)N1[C@@H]1C(=O)N([C@@H](CCC(=O)N2CCN(C3CCCC3)CC2)C(=O)N[C@@H]2CCCc3ccccc32)[C@@H]1/C=C/c1cccc(Br)c1
3. C=C1CC2(OC1=O)C(=O)Nc1ccccc12 (configuration not stated)
4. CC#CC#Cc1cccc(=O)o1
5. O=C(/C=C/c1ccc(Cl)cc1)c1ccc(O)c(CN2CCN(c3cc4c(cc3F)c(=O)c(C(=O)O)cn4C3CC3)CC2)c1

1. -93.9
2. -82.2
3. 81.2
4. 70.3
5. 29.8

###

System: HS 578T breast
Assay details: NCI-60 one-dose screen, 48 h (100 = growth as untreated, 0 = no growth, -100 = all killed)
Condition summary: 10 µM unless noted
This is part of a sample that, as a whole, favours compounds with a hit. Of some 83,000 tested, about 20% had one in any assay.
Response field label: string, one of yes (1) (growth strictly below 90%) or no (0).

# example entries with known answers
>>> qualitative_label("CC(C)C1=C[C@@]23CC[C@@H]4[C@](C)(CCC[C@@]4(C)C(=O)OCC#CCN4CCCC4)[C@H]2C[C@@H]1[C@H]1C(=O)OC(=O)[C@H]13")
"no (0)"
>>> qualitative_label("O=C(O)c1c([N+](=O)[O-])cnc2ccccc12")
"no (0)"
>>> qualitative_label("CCOC(=O)c1c2c(n3ccc(NC(=O)CCN4CCOCC4)cc13)C(=O)c1ncccc1C2=O")
"yes (1)"
>>> qualitative_label("COc1ccc(/C(=C/c2ccc3ccccc3c2)c2nn[nH]n2)cc1OC")
"yes (1)"
>>> qualitative_label("CC1=CC(=O)CC(C)(C)[C@@]1(O)/C=C/[C@@H](C)O")
"no (0)"
>>> qualitative_label("CCOC(=O)c1cnc2cc(Cl)c(F)cc2c1Nc1cccc(NS(C)(=O)=O)c1")
"no (0)"
>>> qualitative_label("O=C(CN1CCN(c2cc3c(cc2F)c(=O)c(C(=O)N/N=C/c2ccccc2)cn3C2CC2)CC1)N/N=C\\c1ccccc1")
"yes (1)"
>>> qualitative_label("CSc1nc(NCCCNc2ccnc3cc(Cl)ccc23)cc(-c2ccccc2)n1")
"yes (1)"

Does CC1(C)CC(=O)C(c2c(-c3ccccc3)[nH]c3[nH]c(=S)[nH]c(=O)c23)=C(O)C1 have growth strictly under 90%?
no (0)

Does COc1cnc2c(c1)C(=O)c1c-2n(CCCN2CCCC2)c(=O)c2cc([N+](=O)[O-])ccc12 have growth strictly under 90%?
yes (1)
